Reported pIC50 values for a set of molecules
Assay: DPPH radical scavenging activity
Type: functional
pIC50: −log10 of the molar value.
Readout: pIC50

Molecule	Reading
O=S(=O)(Nc1cc(F)c(O)c(F)c1)c1ccccc1	4.31
Cc1c(C)c2c(c(C)c1O)CCC(C)(C(=O)O)O2 (configuration not stated)	4.43

----------
Here's a batch of molecules along with measured IC50 for UniProt:P07943.

Chem smiles	IC50 [µM]
Nc1ccc(S(=O)(=O)Nc2cc(F)c(O)c(F)c2)cc1	14.1
O=S(=O)(Nc1cc(F)c(O)c(F)c1)c1ccccc1	32.9

----------
Assay: Antioxidant activity assessed as inhibition of DOPC liposomes
Type: functional
pIC50: −log10 of the molar value.

Molecule	pIC50
Cc1c(C)c2c(c(C)c1O)CCC(C)(C(=O)O)O2 (configuration not stated)	4.03
O=S(=O)(Nc1cc(F)c(O)c(F)c1)c1ccccc1	4.02
